target: JAK1 (Homo sapiens); experiment: Lance Ultra Kinase Assay, recombinant JAK1; details: 5 mM ATP
Sequence (P23458 whole entry): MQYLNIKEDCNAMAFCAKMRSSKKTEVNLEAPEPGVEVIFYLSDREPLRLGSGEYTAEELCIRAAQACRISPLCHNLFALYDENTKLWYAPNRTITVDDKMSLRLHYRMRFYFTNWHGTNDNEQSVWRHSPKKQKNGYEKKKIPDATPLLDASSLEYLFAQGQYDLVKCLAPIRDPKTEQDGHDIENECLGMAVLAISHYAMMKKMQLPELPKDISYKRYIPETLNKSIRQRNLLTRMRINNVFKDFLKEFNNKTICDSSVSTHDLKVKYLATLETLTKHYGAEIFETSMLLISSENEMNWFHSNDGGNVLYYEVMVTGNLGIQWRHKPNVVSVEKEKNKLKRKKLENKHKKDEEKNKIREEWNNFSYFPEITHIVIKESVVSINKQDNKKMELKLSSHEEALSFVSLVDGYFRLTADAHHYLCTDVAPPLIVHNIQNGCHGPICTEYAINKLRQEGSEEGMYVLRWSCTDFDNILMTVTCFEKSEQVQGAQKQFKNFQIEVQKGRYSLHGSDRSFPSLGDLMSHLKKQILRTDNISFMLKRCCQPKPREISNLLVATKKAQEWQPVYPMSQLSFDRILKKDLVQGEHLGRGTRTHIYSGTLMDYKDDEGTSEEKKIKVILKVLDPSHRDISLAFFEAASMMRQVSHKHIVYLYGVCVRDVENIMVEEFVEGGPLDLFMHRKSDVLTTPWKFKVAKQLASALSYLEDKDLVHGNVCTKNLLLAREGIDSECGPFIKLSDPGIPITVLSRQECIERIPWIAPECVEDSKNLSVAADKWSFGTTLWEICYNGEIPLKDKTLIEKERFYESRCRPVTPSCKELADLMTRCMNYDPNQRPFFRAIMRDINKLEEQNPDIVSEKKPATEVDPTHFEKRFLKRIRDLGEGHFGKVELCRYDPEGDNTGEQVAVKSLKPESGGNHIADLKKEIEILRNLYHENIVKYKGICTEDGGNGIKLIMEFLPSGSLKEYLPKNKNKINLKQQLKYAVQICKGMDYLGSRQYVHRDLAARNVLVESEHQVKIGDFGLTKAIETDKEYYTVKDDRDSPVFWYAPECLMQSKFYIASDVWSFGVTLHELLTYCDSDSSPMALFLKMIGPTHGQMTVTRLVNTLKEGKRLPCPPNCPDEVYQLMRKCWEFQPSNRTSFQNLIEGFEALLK
pIC50: −log10 of the molar value.
Value Kind: pIC50

Compound	Value Kind	Numeric Readout
COC[C@H](C(=O)Nc1cccc2c(-c3nc(Nc4cnn(-c5ccccc5C(=O)OC)c4)ncc3F)c[nH]c12)N1CCN(C)CC1	pIC50	9.38
COC[C@H](C(=O)Nc1cccc2c(-c3nc(Nc4ccc5c(CO)ncn5c4)ncc3F)c[nH]c12)N1CCN(C)CC1	pIC50	8.82
COC[C@H](C(=O)Nc1cccc2c(-c3nc(Nc4ccc5c(C(=O)OC)n[nH]c5c4)ncc3F)c[nH]c12)N1CCN(C)CC1	pIC50	9.57
COC[C@H](C(=O)Nc1cccc2c(-c3nc(Nc4ccnc(CO)c4)ncc3F)c[nH]c12)N1CCN(C)CC1	pIC50	9.60
COC[C@H](C(=O)Nc1cccc2c(-c3nc(Nc4cncc(CCCO)c4)ncc3F)c[nH]c12)N1CCN(C)CC1	pIC50	9.70
COC[C@H](C(=O)Nc1cccc2c(-c3nc(Nc4cnn(-c5ccccc5CO)c4)ncc3F)c[nH]c12)N1CCN(C)CC1	pIC50	9.66
COC[C@H](C(=O)Nc1cccc2c(-c3nc(Nc4ccc(CO)nc4)ncc3F)c[nH]c12)N1CCN(C)CC1	pIC50	9.89
COC[C@H](C(=O)Nc1cccc2c(-c3nc(Nc4ccc(C(=O)OC)nc4)ncc3F)c[nH]c12)N1CCN(C)CC1	pIC50	9.77
COC[C@H](C(=O)Nc1cccc2c(-c3nc(Nc4cnc(CCO)c(OC)c4)ncc3F)c[nH]c12)N1CCN(C)CC1	pIC50	9.46
COC[C@H](C(=O)Nc1cccc2c(-c3nc(Nc4ccc(C(C)O)nc4)ncc3F)c[nH]c12)N1CCN(C)CC1 (single isomer, unassigned; isomer 1) [Example 29]	pIC50	9.51
COC[C@H](C(=O)Nc1cccc2c(-c3nc(Nc4ccc5c(C)n[nH]c5c4)ncc3F)c[nH]c12)N1CCN(C)CC1	pIC50	9.74
COC[C@H](C(=O)Nc1cccc2c(-c3nc(Nc4ccc(CO)cn4)ncc3F)c[nH]c12)N1CCN(C)CC1	pIC50	6.88
COC[C@H](C(=O)Nc1cccc2c(-c3nc(Nc4ccc(OCc5ncco5)nc4)ncc3F)c[nH]c12)N1CCN(C)CC1	pIC50	9.07

====

tested on: phosphorylation of STAT6; assay: Cellular p-STAT6 assay, IL-13 stimulated THP-1 cells, flow cytometry; format: cell-based; conditions: Homo sapiens, THP-1, THP-1 cells, IL-13 10 ng/ml; read-out: pSTAT6 IC50
pIC50: −log10 of the molar value.
pIC50 for assorted compounds
Value Kind: pIC50

> print(dat)
                                    compound  numeric.readout
 1  COC[C@H](C(=O)Nc1cccc2c(-c3nc(Nc4cncc(CCCO)c4)ncc3F)c[nH]c12)N1CCN(C)CC1 [Example 25]             8.05
 2  COC[C@H](C(=O)Nc1cccc2c(-c3nc(Nc4ccc(CO)nc4)ncc3F)c[nH]c12)N1CCN(C)CC1 [Example 1]             8.40
 3  COC[C@H](C(=O)Nc1cccc2c(-c3nc(Nc4ccc(NC(=O)CO)nc4)ncc3F)c[nH]c12)N1CCN(C)CC1 [Example 8]             8.21
 4  COC[C@H](C(=O)Nc1cccc2c(-c3nc(Nc4ccnc(CCC(=O)OC)c4)ncc3F)c[nH]c12)N1CCN(C)CC1 [Example 15]             8.14
 5  COC[C@H](C(=O)Nc1cccc2c(-c3nc(Nc4ccc(NC(=O)OC)nc4)ncc3F)c[nH]c12)N1CCN(C)CC1 [Example 52]             7.82
 6  COC[C@H](C(=O)Nc1cccc2c(-c3nc(Nc4cncc(C(=O)OC)c4)ncc3F)c[nH]c12)N1CCN(C)CC1 [Example 21]             8.08
 7  CNC(=O)Cc1ccc(Nc2ncc(F)c(-c3c[nH]c4c(NC(=O)[C@@H](COC)N5CCN(C)CC5)cccc34)n2)cn1 [Example 39]             7.92
 8  CNCCOc1ccc(Nc2ncc(F)c(-c3c[nH]c4c(NC(=O)[C@@H](COC)N5CCN(C)CC5)cccc34)n2)cn1 [Example 20]             8.10
 9  COC[C@H](C(=O)Nc1cccc2c(-c3nc(Nc4ccc5sc(CO)nc5c4)ncc3F)c[nH]c12)N1CCN(C)CC1 [Example 38]             7.93
10  COC[C@H](C(=O)Nc1cccc2c(-c3nc(Nc4ccc(OCCO)nc4)ncc3F)c[nH]c12)N1CCN(C)CC1 [Example 16]             8.13
11  COC[C@H](C(=O)Nc1cccc2c(-c3nc(Nc4cncc(O)c4)ncc3F)c[nH]c12)N1CCN(C)CC1 [Example 28]             8.02
12  COC[C@H](C(=O)Nc1cccc2c(-c3nc(Nc4ccc5ncsc5c4)ncc3F)c[nH]c12)N1CCN(C)CC1 [Example 47]             7.85
13  COC[C@H](C(=O)Nc1cccc2c(-c3nc(Nc4ccc5ncoc5c4)ncc3F)c[nH]c12)N1CCN(C)CC1 [Example 50]             7.84
14  COC[C@H](C(=O)Nc1cccc2c(-c3nc(Nc4ccc(CCO)nc4)ncc3F)c[nH]c12)N1CCN(C)CC1 [Example 60]             7.75
15  COC[C@H](C(=O)Nc1cccc2c(-c3nc(Nc4cnc(CO)c(C)c4)ncc3F)c[nH]c12)N1CCN(C)CC1 [Example 3]             8.35
16  COC[C@H](C(=O)Nc1cccc2c(-c3nc(Nc4ccc5cn[nH]c5c4)ncc3F)c[nH]c12)N1CCN(C)CC1 [Example 13]             8.14
17  COC[C@H](C(=O)Nc1cccc2c(-c3nc(Nc4ccc(OCC(=O)OC)nc4)ncc3F)c[nH]c12)N1CCN(C)CC1 [Example 14]             8.14
18  COC[C@H](C(=O)Nc1cccc2c(-c3nc(Nc4ccnc(CO)c4)ncc3F)c[nH]c12)N1CCN(C)CC1 [Example 2]             8.37
19  COC[C@H](C(=O)Nc1cccc2c(-c3nc(Nc4ccc(CO)cn4)ncc3F)c[nH]c12)N1CCN(C)CC1 [Example 59]             7.76
20  CCC(=O)Nc1ccc(Nc2ncc(F)c(-c3c[nH]c4c(NC(=O)[C@@H](COC)N5CCN(C)CC5)cccc34)n2)cn1 [Example 5]             8.29
21  COC[C@H](C(=O)Nc1cccc2c(-c3nc(Nc4cccc(CCC(=O)OC)n4)ncc3F)c[nH]c12)N1CCN(C)CC1 [Example 55]             7.82
22  CCOC(=O)c1ccc(Nc2ncc(F)c(-c3c[nH]c4c(NC(=O)[C@@H](COC)N5CCN(C)CC5)cccc34)n2)cn1 [Example 36]             7.94
23  COC[C@H](C(=O)Nc1cccc2c(-c3nc(Nc4ccc5[nH]ncc5c4)ncc3F)c[nH]c12)N1CCN(C)CC1 [Example 32]             7.97
24  CCOC(=O)Cc1ccc(Nc2ncc(F)c(-c3c[nH]c4c(NC(=O)[C@@H](COC)N5CCN(C)CC5)cccc34)n2)cn1 [Example 31]             7.98
25  COC[C@H](C(=O)Nc1cccc2c(-c3nc(Nc4ccc5c(c4)C(=O)NCC5)ncc3F)c[nH]c12)N1CCN(C)CC1 [Example 35]             7.95
26  COC[C@H](C(=O)Nc1cccc2c(-c3nc(Nc4cnc(C)c(C(=O)OC)c4)ncc3F)c[nH]c12)N1CCN(C)CC1 [Example 7]             8.21
27  COC[C@H](C(=O)Nc1cccc2c(-c3nc(Nc4ccc(NC(C)=O)nc4)ncc3F)c[nH]c12)N1CCN(C)CC1 [Example 48]             7.85

====

target: JAK3 (Homo sapiens); assay: Lance Ultra Kinase Assay, recombinant JAK3; details: 5 mM ATP
Sequence (P52333 whole entry): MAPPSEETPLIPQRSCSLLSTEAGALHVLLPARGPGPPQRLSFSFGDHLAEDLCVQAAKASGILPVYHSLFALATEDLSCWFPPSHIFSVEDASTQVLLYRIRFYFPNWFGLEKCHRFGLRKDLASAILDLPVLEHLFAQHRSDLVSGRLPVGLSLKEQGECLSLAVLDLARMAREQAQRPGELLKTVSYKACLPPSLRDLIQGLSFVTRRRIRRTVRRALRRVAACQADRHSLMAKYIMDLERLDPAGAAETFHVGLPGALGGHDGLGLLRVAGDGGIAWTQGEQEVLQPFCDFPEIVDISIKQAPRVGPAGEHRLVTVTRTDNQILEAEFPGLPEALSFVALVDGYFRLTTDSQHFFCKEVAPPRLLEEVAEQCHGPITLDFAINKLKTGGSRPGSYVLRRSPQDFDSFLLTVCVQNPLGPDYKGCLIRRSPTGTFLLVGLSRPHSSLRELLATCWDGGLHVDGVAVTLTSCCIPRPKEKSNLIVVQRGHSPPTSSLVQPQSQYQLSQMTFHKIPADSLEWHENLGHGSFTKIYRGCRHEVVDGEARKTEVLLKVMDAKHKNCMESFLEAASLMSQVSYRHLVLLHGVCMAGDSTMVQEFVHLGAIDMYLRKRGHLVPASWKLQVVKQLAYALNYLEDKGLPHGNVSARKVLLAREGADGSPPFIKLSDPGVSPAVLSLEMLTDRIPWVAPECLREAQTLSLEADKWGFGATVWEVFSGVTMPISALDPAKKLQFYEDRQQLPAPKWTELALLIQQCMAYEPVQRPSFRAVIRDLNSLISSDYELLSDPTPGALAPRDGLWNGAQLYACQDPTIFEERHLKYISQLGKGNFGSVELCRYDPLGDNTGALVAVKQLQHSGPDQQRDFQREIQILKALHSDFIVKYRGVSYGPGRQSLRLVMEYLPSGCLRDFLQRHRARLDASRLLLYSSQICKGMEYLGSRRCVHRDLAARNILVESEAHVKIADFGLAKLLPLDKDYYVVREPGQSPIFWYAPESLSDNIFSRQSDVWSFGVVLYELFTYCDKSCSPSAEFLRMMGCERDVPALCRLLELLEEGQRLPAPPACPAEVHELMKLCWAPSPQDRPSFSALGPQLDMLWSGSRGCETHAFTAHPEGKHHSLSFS
pIC50: −log10 of the molar value.
Listed here are molecules together with their documented pIC50.

Molecule	Tested System	pIC50
COC[C@H](C(=O)Nc1cccc2c(-c3nc(Nc4ccc(NC(=O)OC)nc4)ncc3F)c[nH]c12)N1CCN(C)CC1	JAK3 (Homo sapiens)	< 5.00
COC[C@H](C(=O)Nc1cccc2c(-c3nc(Nc4cccc(CCC(=O)OC)n4)ncc3F)c[nH]c12)N1CCN(C)CC1	JAK3 (Homo sapiens)	< 5.00
COC[C@H](C(=O)Nc1cccc2c(-c3nc(Nc4cncc(C(=O)OC)c4)ncc3F)c[nH]c12)N1CCN(C)CC1	JAK3 (Homo sapiens)	< 5.00
COC[C@H](C(=O)Nc1cccc2c(-c3nc(Nc4ccc5c(C)n[nH]c5c4)ncc3F)c[nH]c12)N1CCN(C)CC1	JAK3 (Homo sapiens)	5.11
COC[C@H](C(=O)Nc1cccc2c(-c3nc(Nc4ccc(CO)nc4)ncc3F)c[nH]c12)N1CCN(C)CC1	JAK3 (Homo sapiens)	< 5.00
COCCOc1ccc(Nc2ncc(F)c(-c3c[nH]c4c(NC(=O)[C@@H](COC)N5CCN(C)CC5)cccc34)n2)cn1	JAK3 (Homo sapiens)	< 5.00
COC[C@H](C(=O)Nc1cccc2c(-c3nc(Nc4cnn(C5CCOC5)c4)ncc3F)c[nH]c12)N1CCN(C)CC1 (single isomer, unassigned; isomer 1) [Example 30]	JAK3 (Homo sapiens)	< 5.00
COC[C@H](C(=O)Nc1cccc2c(-c3nc(Nc4cnc(CO)c(C)c4)ncc3F)c[nH]c12)N1CCN(C)CC1	JAK3 (Homo sapiens)	5.11
COC[C@H](C(=O)Nc1cccc2c(-c3nc(Nc4cnn(-c5ccccc5C(=O)OC)c4)ncc3F)c[nH]c12)N1CCN(C)CC1	JAK3 (Homo sapiens)	< 5.00
COC[C@H](C(=O)Nc1cccc2c(-c3nc(Nc4cnc(CCO)c(OC)c4)ncc3F)c[nH]c12)N1CCN(C)CC1	JAK3 (Homo sapiens)	< 5.00
COC[C@H](C(=O)Nc1cccc2c(-c3nc(Nc4ccc5c(C(=O)OC)n[nH]c5c4)ncc3F)c[nH]c12)N1CCN(C)CC1	JAK3 (Homo sapiens)	< 5.00
COC[C@H](C(=O)Nc1cccc2c(-c3nc(Nc4ccc5c(c4)NC(=O)C5)ncc3F)c[nH]c12)N1CCN(C)CC1	JAK3 (Homo sapiens)	5.32
COC[C@H](C(=O)Nc1cccc2c(-c3nc(Nc4cnn(C5CCOC5)c4)ncc3F)c[nH]c12)N1CCN(C)CC1 (single isomer, unassigned; isomer 2) [Example 33]	JAK3 (Homo sapiens)	< 5.00
COC[C@H](C(=O)Nc1cccc2c(-c3nc(Nc4ccc(CO)cn4)ncc3F)c[nH]c12)N1CCN(C)CC1	JAK3 (Homo sapiens)	< 5.00
COC[C@H](C(=O)Nc1cccc2c(-c3nc(Nc4ccc5c(c4)C(=O)OCC5)ncc3F)c[nH]c12)N1CCN(C)CC1	JAK3 (Homo sapiens)	< 5.00
COC[C@H](C(=O)Nc1cccc2c(-c3nc(Nc4ccc(CCO)nc4)ncc3F)c[nH]c12)N1CCN(C)CC1	JAK3 (Homo sapiens)	< 5.00
COC[C@H](C(=O)Nc1cccc2c(-c3nc(Nc4cnc(C(=O)OC)c(C)c4)ncc3F)c[nH]c12)N1CCN(C)CC1	JAK3 (Homo sapiens)	< 5.00
COC[C@H](C(=O)Nc1cccc2c(-c3nc(Nc4ccc5[nH]ccc5c4)ncc3F)c[nH]c12)N1CCN(C)CC1	JAK3 (Homo sapiens)	< 5.00
CNC(=O)Cc1ccc(Nc2ncc(F)c(-c3c[nH]c4c(NC(=O)[C@@H](COC)N5CCN(C)CC5)cccc34)n2)cn1	JAK3 (Homo sapiens)	< 5.00
COC[C@H](C(=O)Nc1cccc2c(-c3nc(Nc4ccc(-n5ccnc5)nc4)ncc3F)c[nH]c12)N1CCN(C)CC1	JAK3 (Homo sapiens)	< 5.00
COC[C@H](C(=O)Nc1cccc2c(-c3nc(Nc4ccc5[nH]ncc5c4)ncc3F)c[nH]c12)N1CCN(C)CC1	JAK3 (Homo sapiens)	5.03
COC[C@H](C(=O)Nc1cccc2c(-c3nc(Nc4cnc(CO)c(OC)c4)ncc3F)c[nH]c12)N1CCN(C)CC1	JAK3 (Homo sapiens)	< 5.00
COC[C@H](C(=O)Nc1cccc2c(-c3nc(Nc4ccc5ocnc5c4)ncc3F)c[nH]c12)N1CCN(C)CC1	JAK3 (Homo sapiens)	< 5.00
CCC(=O)Nc1ccc(Nc2ncc(F)c(-c3c[nH]c4c(NC(=O)[C@@H](COC)N5CCN(C)CC5)cccc34)n2)cn1	JAK3 (Homo sapiens)	< 5.00
COC[C@H](C(=O)Nc1cccc2c(-c3nc(Nc4ccc5scnc5c4)ncc3F)c[nH]c12)N1CCN(C)CC1	JAK3 (Homo sapiens)	< 5.00

Values were extracted from patent US12606544B2.
